- System: MS2 coat protein
- test-name: apparent KD of MS2 coat protein; designed switch direction (-1 OFF switch, 1 ON switch): -1; higher = weaker reporter binding
- cond: input ligand: microRNA oligo, concentration not stated
Reported apparent KD of MS2 coat protein is given for each of the following sequences.
measured-metric: apparent KD of MS2 coat protein

{"residue-string": "AAUAAGAAGUAAGGAUAUCUGAAAGGAAGUGUAAGAGAAGGUACGGUGACGUCAGAACGACAUGAGGAUCACCCAUGUAAAGAA [PowerStrip EXNG 1.11] (Eterna round: R96, puzzle: Exclusion NG 1)", "study-target": "MS2 coat protein", "measured-metric": "apparent KD of MS2 coat protein", "reported-value": "69.6 nM"}
{"residue-string": "CUCCGGCGUGUAGGAUAUGGAUCCGAUUAGGAUCCAGAAGGACAUGAGGAUCACCCAUGUACAUGUAAACGGUCGUCACCGGGC [salish99_ExNG1_r04_207] (Eterna round: R96, puzzle: Exclusion NG 1)", "study-target": "MS2 coat protein", "measured-metric": "apparent KD of MS2 coat protein", "reported-value": "26.2 nM"}
{"residue-string": "UUAAUUAGCAGACUAAUACCUCACAUGAGGAUCACCCAUGUGCAGGAUAUCAGCUCGUGUAGAGCUGAGAAGGGCACUGUCUGC [ExNG3/12-A3] (Eterna round: R96, puzzle: Exclusion NG 3)", "study-target": "MS2 coat protein", "measured-metric": "apparent KD of MS2 coat protein", "reported-value": "10.2 nM"}

----------
- System: MS2 coat protein
- test-name: apparent KD of MS2 coat protein; designed switch direction (-1 OFF switch, 1 ON switch): -1; higher = weaker reporter binding
- cond: Eterna round: R95; input ligand: none

{"residue-string": "GAGUGACAUGAGGAUCACCCAUGUGAGGAUAUCGGACGGACCAAAUUAACAAUAAAUGCGAGAAGGCGCAUCGG [Exclusion 1 V16] (puzzle: Exclusion 1)", "apparent KD of MS2 coat protein": "54.3 nM"}
{"residue-string": "AAUUAACAAGCAGGAUCCUACAUGAGGAUCACCCAUGUGCUCGUCUUAUAAAGUACUAUCACGAAAGUGAUAGUACA [Mat - Sensor v3 - turn-off var 1 - Eli Mod - D74] (puzzle: Sensor v3, turn-off variant 1)", "apparent KD of MS2 coat protein": "197 nM"}
{"residue-string": "CAAAAGGUAGGAUAUACGAAAAAAAAGGGUAGAAAAAAAACACAUGAGGAUCACCCAUGUAGAAGGACCAAAAC [salish99_ex2_r3_042] (puzzle: Exclusion 2)", "apparent KD of MS2 coat protein": "21.6 nM"}
{"residue-string": "GGUCGUAUGAGUAGUCCUCAUUGAAGAGAUUGGUAAGAUACAUGAGGAUCACCCAUGUUUGAACAAGCUUUUGCUCU [JR_Sv3TOV2_Sub008] (puzzle: Sensor v3, turn-off variant 2)", "apparent KD of MS2 coat protein": "120 nM"}
{"residue-string": "GGAAUACAUGAGGAUCACCCAUGUAAGGAUAUGCUGAAUAACACGGAAUUAACGUGCAGCAGAAGGUACAAAUG [Mat - Mod of my Eli Mod D44] (puzzle: Exclusion 1)", "apparent KD of MS2 coat protein": "93.2 nM"}
